experiment: method code SF-AS, from Lembo, S.; Sasso, V.; Silipo, C.; Vittoria, A. (1983). Physicochemical properties and drug design in a set of analgesics. Farmaco [Sci], 38(10)750-761.; conditions: pH 7.4
MEASURED QUANTITY: logD
The answer should be a number; do not append a unit.

Task item: Reported logD, molecule "COc1ccccc1NCC#N" : ____
Reply: 1.3

Task item: Now this one: "CCCCNc1ccccc1OC"
Reply: 2.85

Task item: Now this one: "COc1ccccc1NCC(C)=O"
Reply: 1.49

Task item: Now this one: "COc1ccccc1NC(=O)C(Cl)Cl"
Reply: 2.41

Task item: Now this one: "N#CCNc1ccccc1C(N)=O"
Reply: 0.5

Task item: Now this one: "CC(=O)c1ccccc1NC(=O)C(Cl)Cl"
Reply: 2.65

Task item: Now this one: "CC(=O)c1ccccc1NCC#N"
Reply: 1.58

Task item: Now this one: "CC(=O)CNc1ccccc1C(N)=O"
Reply: 0.61

Task item: Now this one: "CCCCNc1ccccc1C(N)=O"
Reply: 2.33

---

# strict inequality: logP < 1 yields criterion met, everything else yields criterion not met

Task item: Lab note: logP threshold 1. Does this molecule come in strictly under it? "CC(=O)Nc1ccccc1C(C)=O"
Reply: criterion not met

Task item: Now this one: "COc1ccccc1NCCO"
Reply: criterion not met

Task item: Now this one: "CC(=O)c1ccccc1NCCO"
Reply: criterion not met

Task item: Now this one: "CC(C)Nc1ccccc1C(N)=O"
Reply: criterion not met

Task item: Now this one: "NC(=O)c1ccccc1NC(=O)C(Cl)Cl"
Reply: criterion not met

Task item: Now this one: "COc1ccccc1NCC(N)=O"
Reply: criterion met

Task item: Now this one: "CC(=O)Nc1ccccc1C(N)=O"
Reply: criterion met
